Each record here notes measured MIC.
- Tested on: Escherichia
- protocol.summary: Antimicrobial activity against Escherichia ATCC 25922 after 16 hrs
- Type: functional
- conditions.used: ATCC 25922, 16 h
assay.endpoint: MIC (µg/mL)

smiles_str=NCCCC[C@@H](CN(CC(N)=O)S(=O)(=O)CCN)NC(=O)CN(C[C@H](Cc1ccccc1)NC(=O)CN(C[C@H](Cc1ccccc1)NC(=O)CN(C[C@@H](N)Cc1ccccc1)S(=O)(=O)Cc1ccccc1)S(=O)(=O)CCN)S(=O)(=O)Cc1ccccc1 test_target=Escherichia unit_name=µg/mL measured_result=25
smiles_str=NCCCC[C@@H](CN(CC(N)=O)S(=O)(=O)CCN)NC(=O)CN(C[C@H](Cc1ccccc1)NC(=O)CN(C[C@H](Cc1ccccc1)NC(=O)CN(C[C@H](Cc1ccccc1)NC(=O)CN(C[C@H](CCCCN)NC(=O)CN(C[C@H](Cc1ccccc1)NC(=O)CN(C[C@@H](N)Cc1ccccc1)S(=O)(=O)CCN)S(=O)(=O)Cc1ccccc1)S(=O)(=O)CCN)S(=O)(=O)Cc1ccccc1)S(=O)(=O)CCN)S(=O)(=O)Cc1ccccc1 test_target=Escherichia unit_name=µg/mL measured_result=12
smiles_str=NCCCC[C@H](N)CN(CC(=O)N[C@@H](Cc1ccccc1)CN(CC(=O)N[C@@H](CCCCN)CN(CC(=O)N[C@@H](Cc1ccccc1)CN(CC(=O)N[C@@H](CCCCN)CN(CC(=O)N[C@@H](Cc1ccccc1)CN(CC(=O)N[C@@H](CCCCN)CN(CC(=O)N[C@@H](Cc1ccccc1)CN(CC(N)=O)S(=O)(=O)Cc1ccccc1)S(=O)(=O)CCN)S(=O)(=O)Cc1ccccc1)S(=O)(=O)Cc1ccccc1)S(=O)(=O)Cc1ccccc1)S(=O)(=O)CCN)S(=O)(=O)Cc1ccccc1)S(=O)(=O)Cc1ccccc1 test_target=Escherichia unit_name=µg/mL measured_result=3
smiles_str=NCCCC[C@@H](CN(CC(N)=O)S(=O)(=O)CCN)NC(=O)CN(C[C@H](Cc1ccccc1)NC(=O)CN(C[C@H](Cc1ccccc1)NC(=O)CN(C[C@H](Cc1ccccc1)NC(=O)CN(C[C@H](CCCCN)NC(=O)CN(C[C@@H](N)Cc1ccccc1)S(=O)(=O)Cc1ccccc1)S(=O)(=O)CCN)S(=O)(=O)Cc1ccccc1)S(=O)(=O)CCN)S(=O)(=O)Cc1ccccc1 test_target=Escherichia unit_name=µg/mL measured_result=12
smiles_str=CC(=O)N[C@@H](CCCCN)CN(CC(=O)N[C@@H](Cc1ccccc1)CN(CC(=O)N[C@@H](CCCCN)CN(CC(=O)N[C@@H](Cc1ccccc1)CN(CC(=O)N[C@@H](CCCCN)CN(CC(=O)N[C@@H](Cc1ccccc1)CN(CC(=O)N[C@@H](CCCCN)CN(CC(=O)N[C@@H](Cc1ccccc1)CN(CC(N)=O)S(=O)(=O)Cc1ccccc1)S(=O)(=O)CCN)S(=O)(=O)Cc1ccccc1)S(=O)(=O)Cc1ccccc1)S(=O)(=O)Cc1ccccc1)S(=O)(=O)CCN)S(=O)(=O)Cc1ccccc1)S(=O)(=O)Cc1ccccc1 test_target=Escherichia unit_name=µg/mL measured_result=3

Sourced from ChEMBL document CHEMBL3576840
